- Test system: Digitaria sanguinalis (DIGSA)
- EXPERIMENTAL_DETAILS: Post-emergence efficacy, glasshouse, evaluated after 13 days
- Assay type: in vivo
- TEST_PARAMETERS: Digitaria sanguinalis, 312 h; post-emergence application, 500 g/Ha, evaluated after 13 days; read-out: Control of weed species DIGSA (100=total damage to plant; 0=no damage to plant)
Label 1 (yes) when pest or weed control at 500 g/ha is at or above 70%; anything below gets 0 (no).

Can O=C(O)CC[n+]1ccc(C(=O)NC2CSC2)cn1 be said to have pest or weed control at 500 g/ha at or above 70%? 1 (yes)

Can CN(CCS(C)(=O)=O)C(=O)c1cc[n+](CCC(=O)O)nc1 be said to have pest or weed control at 500 g/ha at or above 70%? 1 (yes)

Can O=C(NCC(F)(F)F)c1cc[n+](CCS(=O)(=O)[O-])nc1 be said to have pest or weed control at 500 g/ha at or above 70%? 0 (no)

Can CN(C)C(=O)c1cc[n+](CCCS(=O)(=O)O)nc1 be said to have pest or weed control at 500 g/ha at or above 70%? 0 (no)

Can O=C(O)CC[n+]1ccc(C(=O)NC2CCCCC2)cn1 be said to have pest or weed control at 500 g/ha at or above 70%? 0 (no)

Can C=CCNC(=O)c1cc[n+](CCNS(=O)(=O)[O-])nc1 be said to have pest or weed control at 500 g/ha at or above 70%? 1 (yes)

Can O=C(O)CC[n+]1ccc(C(=O)NCC2CC2)cn1 be said to have pest or weed control at 500 g/ha at or above 70%? 1 (yes)

Can CN(C)S(=O)(=O)CCNC(=O)c1cc[n+](CCC(=O)O)nc1 be said to have pest or weed control at 500 g/ha at or above 70%? 1 (yes)

Can C=CCNC(=O)c1cc[n+](CCS(=O)(=O)[O-])nc1 be said to have pest or weed control at 500 g/ha at or above 70%? 1 (yes)

Can COCC(C)NC(=O)c1cc[n+](CCC(=O)O)nc1 (stereo not drawn) be said to have pest or weed control at 500 g/ha at or above 70%? 1 (yes)

Can CCNC(=O)c1cc[n+](CCNS(=O)(=O)[O-])nc1 be said to have pest or weed control at 500 g/ha at or above 70%? 1 (yes)

Can C#CCNC(=O)c1cc[n+](CCC(=O)O)nc1 be said to have pest or weed control at 500 g/ha at or above 70%? 1 (yes)

Can O=C(O)CC[n+]1ccc(C(=O)NC2(C(F)(F)F)CC2)cn1 be said to have pest or weed control at 500 g/ha at or above 70%? 1 (yes)

Can CCNC(=O)c1cc[n+](CCOS(=O)(=O)[O-])nc1 be said to have pest or weed control at 500 g/ha at or above 70%? 1 (yes)

Can CCNC(=O)c1cc[n+](C(C)CC(=O)O)nc1 (stereo not drawn) be said to have pest or weed control at 500 g/ha at or above 70%? 1 (yes)

Can C#CCCNC(=O)c1cc[n+](CCC(=O)O)nc1 be said to have pest or weed control at 500 g/ha at or above 70%? 1 (yes)

Can O=C(O)CC[n+]1ccc(C(=O)NCCc2nccs2)cn1 be said to have pest or weed control at 500 g/ha at or above 70%? 0 (no)

Can CC(C)N(C(=O)c1cc[n+](CCS(=O)(=O)O)nc1)C(C)C be said to have pest or weed control at 500 g/ha at or above 70%? 0 (no)

Can CS(=O)(=O)CCNC(=O)c1cc[n+](CCNS(=O)(=O)[O-])nc1 be said to have pest or weed control at 500 g/ha at or above 70%? 1 (yes)

Can CC[S+]([O-])CCNC(=O)c1cc[n+](CCC(=O)O)nc1 (stereo not drawn) be said to have pest or weed control at 500 g/ha at or above 70%? 1 (yes)

Can C[S+]([O-])CCNC(=O)c1cc[n+](CCC(=O)O)nc1 (stereo not drawn) be said to have pest or weed control at 500 g/ha at or above 70%? 1 (yes)

Can COCCNC(=O)c1cc[n+](CCS(=O)(=O)[O-])nc1 be said to have pest or weed control at 500 g/ha at or above 70%? 1 (yes)

Can N#Cc1ccc(CNC(=O)c2cc[n+](CCC(=O)O)nc2)cc1 be said to have pest or weed control at 500 g/ha at or above 70%? 0 (no)

Can CCS(=O)(=O)CCNC(=O)c1cc[n+](CCC(=O)O)nc1 be said to have pest or weed control at 500 g/ha at or above 70%? 1 (yes)

Can CC(C)N(C(=O)c1cc[n+](CCC(=O)O)nc1)C(C)C be said to have pest or weed control at 500 g/ha at or above 70%? 0 (no)

Can O=C(O)CC[n+]1ccc(C(=O)NCCc2ncccn2)cn1 be said to have pest or weed control at 500 g/ha at or above 70%? 1 (yes)

Can CC#CCNC(=O)c1cc[n+](CCC(=O)O)nc1 be said to have pest or weed control at 500 g/ha at or above 70%? 1 (yes)

Can O=C(O)CC[n+]1ccc(C(=O)N2CC[S+]([O-])CC2)cn1 be said to have pest or weed control at 500 g/ha at or above 70%? 1 (yes)

Can O=C(O)CC[n+]1ccc(C(=O)N2CCS(=O)(=O)CC2)cn1 be said to have pest or weed control at 500 g/ha at or above 70%? 1 (yes)

Can COCCNC(=O)c1cc[n+](CCNS(=O)(=O)[O-])nc1 be said to have pest or weed control at 500 g/ha at or above 70%? 1 (yes)

Can CC(=O)CNC(=O)c1cc[n+](CCC(=O)O)nc1 be said to have pest or weed control at 500 g/ha at or above 70%? 1 (yes)

Can CC1CC1NC(=O)c1cc[n+](CCC(=O)O)nc1 (stereo not drawn) be said to have pest or weed control at 500 g/ha at or above 70%? 1 (yes)
